Where do these numbers come from? They come from patent US20250313631A1.

target-of-assay: T1, recombinant human VISTA (His-tagged) (human, UniProt Q9H7M9 33-194)
T1 construct: bought soluble protein (Sino Biological); also called hVISTA; human VISTA polypeptide
assay-summary: ELISA, plate coated with human VISTA; unit nM from the legend paragraph 698
measured-metric: pEC50
Please treat pEC50 as minus the base-10 logarithm of the molar concentration.

Find the recorded pEC50 belonging to anti-VISTA clone V4-C31 IgG1 (antibody, V domains shown) VH: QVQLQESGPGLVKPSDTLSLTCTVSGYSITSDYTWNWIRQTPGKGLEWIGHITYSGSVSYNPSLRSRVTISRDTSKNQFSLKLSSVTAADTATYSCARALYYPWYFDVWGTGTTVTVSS VL: EIVLTQSPATLSLSPGERATLSCRASSSVGYIHWYQQKPGQAPRPLIYATYYRTTGIPARFSGSGSGTDNTLTISSLEPEDSAVYYCQQWSSYPPITFGGGTKLEVKR and report it.
10.70
